# System: Escherichia coli
# ASSAY COMMENT: Antibacterial activity against Escherichia coli DH10beta harboring pHuLUC3 after 18 to 20 hrs by microdilution method
# Format: functional
MEASURE: MIC

[in] // map O=[N+]([O-])c1ccc(/N=N/Nc2ccc([N+](=O)[O-])cc2Cl)c(Cl)c1 to recorded MIC (system: Escherichia coli)
[out] > 128 µg/mL

[in] // map O=C(c1ccccc1F)N(/N=N/c1ccc([N+](=O)[O-])cc1C(F)(F)F)c1ccc([N+](=O)[O-])cc1C(F)(F)F to recorded MIC (system: Escherichia coli)
[out] > 128 µg/mL

[in] // map FC(F)(F)c1cc(Cl)ccc1/N=N/Nc1ccc(Cl)cc1C(F)(F)F to recorded MIC (system: Escherichia coli)
[out] > 128 µg/mL
